Data origin, for the record: ChEMBL document CHEMBL4819003

experiment: AUC (0 to t) in male/female Sprague-Dawley rat at 0.5 mg/kg, iv measured for 36 hrs by LC-MS/MS analysis; type: ADME, organism-based; set-up: dose 0.5 mg/kg, time 36 hrs; conditions: both, in vivo
recorded-metric: AUC(0-t) at 36 h

>>> print(df.to_string())
                      smiles_representation   recorded_metric          val
0  CS(=O)(=O)[O-].Cn1cc([C+](c2ccc(C(F)(F)F)cc2)c2c[nH]c3ccccc23)c2ccccc21  AUC(0-t) at 36 h  501 ng·h/mL

---

tested on: HCT-116; test: Cytotoxicity against human HCT-116 cells assessed as inhibition of cell growth measured after 24 hrs by MTT assay; type: functional, cell-based; settings: hct-116
pIC50: −log10 of the molar value.
recorded-metric: pIC50

In [3]: df
Out[3]:
                      smiles_representation   val
0  FC(F)(F)c1ccc([C+](c2c[nH]c3ccccc23)c2c[nH]c3ccccc23)cc1  6.59
